test: chemical genetic growth profiling, strain panel (AID 1159580);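 also: tested at 20 µM; growth read once vehicle control cultures reached saturation at 30 °C; 1 = growth at the plate median or of vehicle wells; lower values mean less growth of the strain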; settings: S. cerevisiae deletion strains, growth OD, locus YJL129C, strain trk1, stronger effect = lower value
About 2,000 (36%) of roughly 5,500 compounds were called active. Not shown: some 18% with an inconclusive outcome. Some of the results follow.
// reported normalized growth per item
measurementLabel: normalized growth

[
  {
    "compound": "C1CCN2C[C@@H]3C[C@H](CN4CCCC[C@@H]34)[C@H]2C1",
    "readoutNumber": 1
  },
  {
    "compound": "O=C(OC1Cc2c(O)cc(O)cc2OC1c1cc(O)c(O)c(O)c1-c1c(C2Oc3cc(O)cc(O)c3CC2OC(=O)c2cc(O)c(O)c(O)c2)cc(O)c(O)c1O)c1cc(O)c(O)c(O)c1 (stereo unspecified)",
    "readoutNumber": 1.04
  },
  {
    "compound": "O=C1CCCC2C3CC(CN12)[C@@H]1CCCCN1C3 (stereo partly specified)",
    "readoutNumber": 0.99
  },
  {
    "compound": "CC(=O)c1c(O)c(C)c(O)c2c1OC1=CC(=O)C(C(C)=O)C(=O)C12C (stereo unspecified)",
    "readoutNumber": 0.684
  },
  {
    "compound": "OC[C@@H]1CCCN2CCCC[C@H]12",
    "readoutNumber": 1.06
  },
  {
    "compound": "O=C(NC(=O)c1c(F)cccc1F)Nc1ccc(Cl)cc1",
    "readoutNumber": 1.02
  },
  {
    "compound": "CN[C@H](CC(=O)O)C(=O)O",
    "readoutNumber": 1.09
  },
  {
    "compound": "CC(C)=CCC[C@](C)(O)C1CC=C(C)CC1 (stereo partly specified)",
    "readoutNumber": 0.973
  },
  {
    "compound": "CC(=O)NCCCS(=O)(=O)O",
    "readoutNumber": 1.01
  },
  {
    "compound": "C=C(C)[C@H]1CC=C(C(=O)O)CC1",
    "readoutNumber": 0.911
  },
  {
    "compound": "CCN(CC)CCNC(=O)c1cc(S(C)(=O)=O)ccc1OC",
    "readoutNumber": 0.986
  }
]

---

experiment: chemical genetic growth profiling, strain panel (AID 1159580);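 also: tested at 20 µM; growth read once vehicle control cultures reached saturation at 30 °C; 1 = growth at the plate median or of vehicle wells; lower values mean less growth of the strain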; conditions: S. cerevisiae deletion strains, growth OD, locus YFR028C, strain CDC14, stronger effect = lower value
Hit rate of the full screen: of about 5,500 compounds, about 2,000 (36%) were called active. Inconclusive results (about 18%) are left out. This is one part of the list.

[
  {
    "compound": "CCOC(=O)C1=C(N)OC2=C(C(=O)CC(C)(C)C2)C1c1ccc(Cl)cc1Cl (stereo not drawn)",
    "normalized growth": 0.976
  },
  {
    "compound": "CC(=O)Nc1ccc([N+](=O)[O-])cc1[N+](=O)[O-]",
    "normalized growth": 0.9
  },
  {
    "compound": "O=C(c1ccc2ccccc2c1)N1CCN(c2ccnc3cc(Cl)ccc23)CC1",
    "normalized growth": 0.997
  },
  {
    "compound": "CCOC(=O)/C(=N/Nc1c(Cl)cccc1Cl)c1csc(N)n1",
    "normalized growth": 0.968
  },
  {
    "compound": "O=C(NCc1ccncc1)c1ccc(-n2cccn2)cc1",
    "normalized growth": 0.979
  },
  {
    "compound": "FC(F)(F)c1cccc(NNC(=S)Nc2ccccc2)c1",
    "normalized growth": 1
  },
  {
    "compound": "N#CC(C#N)=C/C=C(/Sc1nc2ccccc2s1)c1ccc(Br)cc1",
    "normalized growth": 0.187
  },
  {
    "compound": "CSc1cc(-c2ccncc2)nc(-c2cccs2)c1",
    "normalized growth": 0.952
  },
  {
    "compound": "N#CCC(=O)NNC(=S)Nc1ccc(Cl)c(Cl)c1",
    "normalized growth": 0.979
  },
  {
    "compound": "Cc1ccc(S(=O)(=O)CCSC2=CC(=O)CC(C)(C)S2)cc1",
    "normalized growth": 0.998
  },
  {
    "compound": "CC(=O)c1sc(SCCS(=O)(=O)c2ccc(C)cc2)c2c1CC(C)(C)CC2=O",
    "normalized growth": 0.97
  },
  {
    "compound": "O=[N+]([O-])c1cc(Br)cnc1Sc1nnc(SCC2CC2)s1",
    "normalized growth": 0.943
  },
  {
    "compound": "O=C(NC(=S)Nc1cccc(C(F)(F)F)c1)c1ccc2nonc2c1",
    "normalized growth": 0.944
  },
  {
    "compound": "CC(C)c1ccc(N2C=Nc3ccc(C(C)C)cc3C2)cc1",
    "normalized growth": 0.987
  },
  {
    "compound": "S=C(N/N=C\\c1ccc(Cl)cc1)N/N=C\\c1ccc(Cl)cc1",
    "normalized growth": 0.963
  },
  {
    "compound": "Cc1c2c(=O)[nH]ncc2c(-c2ccccc2)n1-c1ccc([N+](=O)[O-])cc1",
    "normalized growth": 0.978
  },
  {
    "compound": "CCCc1c(C(=O)NNc2cccc(Cl)c2)cnn1-c1ccccc1",
    "normalized growth": 0.981
  },
  {
    "compound": "C/C(=C\\c1ccc2c(c1)OCO2)[N+](=O)[O-]",
    "normalized growth": 0.108
  },
  {
    "compound": "O=C(Nc1ccc(C(F)(F)F)cc1)N1CCN(c2ccnc3cc(Cl)ccc23)CC1",
    "normalized growth": 0.984
  },
  {
    "compound": "O=c1c(Cl)c(-n2cccn2)cnn1-c1ccc(Cl)cc1Cl",
    "normalized growth": 0.965
  },
  {
    "compound": "COc1ccc(C(=O)CSC2=NCCc3ccccc32)cc1",
    "normalized growth": 0.982
  },
  {
    "compound": "Cc1c(C)c(C)c(CSC(N)=Nc2ccc(F)cc2)c(C)c1C",
    "normalized growth": 1.01
  },
  {
    "compound": "CCCc1c(C(=O)Sc2ccccn2)cnn1-c1ccc(Cl)cc1",
    "normalized growth": 0.955
  },
  {
    "compound": "Fc1cccc(F)c1NC(=S)Nc1cc(C(F)(F)F)cc(C(F)(F)F)c1",
    "normalized growth": 0.977
  },
  {
    "compound": "O=S(=O)(N/N=C\\c1ccc(Cl)cc1)c1ccc(-c2ccccn2)s1",
    "normalized growth": 0.973
  },
  {
    "compound": "N#CC(C#N)=C/C=C(/Sc1ccc(F)c(Cl)c1)c1ccc(Cl)cc1",
    "normalized growth": 0.949
  },
  {
    "compound": "O=C(NCCSCc1cccc(C(F)(F)F)c1)c1ccc(Cl)cc1",
    "normalized growth": 0.965
  },
  {
    "compound": "Cc1cccc(Cl)c1/C=N\\NC(N)=S",
    "normalized growth": 0.828
  },
  {
    "compound": "Fc1cccc(Cl)c1CSc1nncn1-c1ccc(OCc2ccccc2)cc1",
    "normalized growth": 0.997
  },
  {
    "compound": "O=C(Nc1ccc(N2CCOCC2)cc1)c1ccc(-n2cccn2)cc1",
    "normalized growth": 0.977
  },
  {
    "compound": "O=[N+]([O-])c1ccccc1CS(=O)(=O)c1nc2ccccc2s1",
    "normalized growth": 0.863
  },
  {
    "compound": "C=CCOc1ccc(/C=C/[N+](=O)[O-])cc1",
    "normalized growth": 0.0822
  },
  {
    "compound": "NC(=Nc1ccc(F)cc1)SCc1c(Cl)cccc1Cl",
    "normalized growth": 0.989
  }
]
